The following compounds are shown together with reported IC50 values.
- Test system: normal human colonic epithelial cells (NCM460)
- experiment: CCK-8 cell proliferation assay, NCM460
- Format: cell-based
- cond: NCM460, CCK-8, 48 h, normal colonic epithelial cells, read-out: IC50 ± SD NCM460

compound	IC50, µM
COC1C2CC3C(C)(C)OC(CC=C(C)C(=O)N4CCC(N5CCCC5)CC4)(C2=O)C32Oc3c(CC=C(C)C)c4c(c(O)c3C(=O)C12)C=CC(C)(C)O4 (centres unmarked)	2.29
COC1C2CC3C(C)(C)OC(CC=C(C)C(=O)N4CCS(=O)(=O)CC4)(C2=O)C32Oc3c(CC=C(C)C)c4c(c(O)c3C(=O)C12)C=CC(C)(C)O4 (centres unmarked)	4.08
O=c1[nH]cc(F)c(=O)[nH]1 [5-Fu, 5-fluorouracil, reference compound]	13.6
COC1C2CC3C(C)(C)OC(CC=C(C)C(=O)N4CCSCC4)(C2=O)C32Oc3c(CC=C(C)C)c4c(c(O)c3C(=O)C12)C=CC(C)(C)O4 (centres unmarked)	19.9
CONC(=O)C(C)=CCC12OC(C)(C)C3CC(C1=O)C(OC)C1C(=O)c4c(O)c5c(c(CC=C(C)C)c4OC132)OC(C)(C)C=C5 (centres unmarked)	1.63

###

- Test system: human non-small-cell lung cancer cells (A549)
- experiment: CCK-8 cell proliferation assay, A549
- Assay type: cell-based
- cond: 48 h, read-out: Inhibition rates (%) A549
Returns YES if the recorded inhibition at 5 µM is greater than or equal to 5%, and NO otherwise.

compound	category
COC1C2CC3C(C)(C)OC(CC=C(C)C(=O)N4CCOCC4)(C2=O)C32Oc3c(CC=C(C)C)c4c(c(O)c3C(=O)C12)C=CC(C)(C)O4 (stereo not drawn) [TH12-3]	YES
COC1C2CC3C(C)(C)OC(CC=C(C)C(=O)N4CCC(N5CCCC5)CC4)(C2=O)C32Oc3c(CC=C(C)C)c4c(c(O)c3C(=O)C12)C=CC(C)(C)O4 (stereo not drawn) [TH12-8]	NO
COC1C2CC3C(C)(C)OC(CC=C(C)C(=O)N4CCCCC4)(C2=O)C32Oc3c(CC=C(C)C)c4c(c(O)c3C(=O)C12)C=CC(C)(C)O4 (stereo not drawn) [TH12-2]	NO
COC1C2CC3C(C)(C)OC(CC=C(C)C(=O)O)(C2=O)C32Oc3c(CC=C(C)C)c4c(c(O)c3C(=O)C12)C=CC(C)(C)O4 (stereo not drawn) [TH12-1, Moreollic acid]	YES
COC1C2CC3C(C)(C)OC(CC=C(C)C(=O)N4CCC(c5ccccc5)CC4)(C2=O)C32Oc3c(CC=C(C)C)c4c(c(O)c3C(=O)C12)C=CC(C)(C)O4 (stereo not drawn) [TH12-7]	NO
COC1C2CC3C(C)(C)OC(CC=C(C)C(=O)N4CCSCC4)(C2=O)C32Oc3c(CC=C(C)C)c4c(c(O)c3C(=O)C12)C=CC(C)(C)O4 (stereo not drawn) [TH12-4]	YES

###

- Test system: normal human colonic epithelial cells (NCM460)
- experiment: CCK-8 cell proliferation assay, NCM460
- Assay type: cell-based
- cond: NCM460, CCK-8, 48 h, normal colonic epithelial cells, read-out: IC50 ± SD NCM460
The following molecules are shown together with reported IC50 values.
endpoint label: IC50 (µM)

molecule	recorded measurement
COC1C2CC3C(C)(C)OC(CC=C(C)C(=O)N4CCCCC4)(C2=O)C32Oc3c(CC=C(C)C)c4c(c(O)c3C(=O)C12)C=CC(C)(C)O4 (stereo not drawn)	4.73
COC1C2CC3C(C)(C)OC(CC=C(C)C(=O)N4CCOCC4)(C2=O)C32Oc3c(CC=C(C)C)c4c(c(O)c3C(=O)C12)C=CC(C)(C)O4 (stereo not drawn)	4.72
COC1C2CC3C(C)(C)OC(CC=C(C)C(=O)N4CCC(c5ccccc5)CC4)(C2=O)C32Oc3c(CC=C(C)C)c4c(c(O)c3C(=O)C12)C=CC(C)(C)O4 (stereo not drawn)	2.97

###

- Test system: human non-small-cell lung cancer cells (A549)
- experiment: CCK-8 cell proliferation assay, A549
- Type: cell-based
- cond: 48 h, read-out: Inhibition rates (%) A549

compound	unit abbreviation	inhibition at 5 µM
COC1C2CC3C(C)(C)OC(CC=C(C)C(=O)N4CCS(=O)(=O)CC4)(C2=O)C32Oc3c(CC=C(C)C)c4c(c(O)c3C(=O)C12)C=CC(C)(C)O4 (stereo not shown)	%	6.85
O=c1[nH]cc(F)c(=O)[nH]1 [5-Fu, 5-fluorouracil, reference compound]	%	21.1
COC1C2CC3C(C)(C)OC(CC=C(C)C(=O)N4CCC(C)CC4)(C2=O)C32Oc3c(CC=C(C)C)c4c(c(O)c3C(=O)C12)C=CC(C)(C)O4 (stereo not shown)	%	14.3
CONC(=O)C(C)=CCC12OC(C)(C)C3CC(C1=O)C(OC)C1C(=O)c4c(O)c5c(c(CC=C(C)C)c4OC132)OC(C)(C)C=C5 (stereo not shown)	%	8.54

###

- Tested on: human breast cancer cells (MDA-MB-231)
- experiment: CCK-8 cell proliferation assay, MDA-MB-231
- Type: cell-based
- cond: 48 h, read-out: Inhibition rates (%) MDA-MB-231
- Procedure: Initially, the target compounds were evaluated for antiproliferative activities against human non-small-cell lung cancer cells (A549), human breast cancer cells (MDA-MB-231), human esophageal cancer cells (KYSE30), and human colon cancer cells (HCT-116) at 5 μM. All of them were tested by the CCK-8 assay using 5-Fu as the positive control. […]

molecule	inhibition at 5 µM / %
COC1C2CC3C(C)(C)OC(CC=C(C)C(=O)O)(C2=O)C32Oc3c(CC=C(C)C)c4c(c(O)c3C(=O)C12)C=CC(C)(C)O4 (stereo not shown) [TH12-1, Moreollic acid]	-4.9
COC1C2CC3C(C)(C)OC(CC=C(C)C(=O)N4CCCCC4)(C2=O)C32Oc3c(CC=C(C)C)c4c(c(O)c3C(=O)C12)C=CC(C)(C)O4 (stereo not shown) [TH12-2]	0.14
COC1C2CC3C(C)(C)OC(CC=C(C)C(=O)N4CCS(=O)(=O)CC4)(C2=O)C32Oc3c(CC=C(C)C)c4c(c(O)c3C(=O)C12)C=CC(C)(C)O4 (stereo not shown) [TH12-10]	8.09
COC1C2CC3C(C)(C)OC(CC=C(C)C(=O)N4CCOCC4)(C2=O)C32Oc3c(CC=C(C)C)c4c(c(O)c3C(=O)C12)C=CC(C)(C)O4 (stereo not shown) [TH12-3]	1.71

These data points were gathered from paper PMC8846360.
